Measured values drawn from patent US5561135A for this set.

Target: σ receptors (Cavia porcellus)
Sequence (Q60492 whole entry): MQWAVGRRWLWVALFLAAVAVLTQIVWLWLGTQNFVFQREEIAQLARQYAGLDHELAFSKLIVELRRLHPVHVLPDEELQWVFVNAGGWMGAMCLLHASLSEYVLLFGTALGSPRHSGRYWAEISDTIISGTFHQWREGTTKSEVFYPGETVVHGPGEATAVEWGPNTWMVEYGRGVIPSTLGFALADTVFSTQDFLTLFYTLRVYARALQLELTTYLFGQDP
pIC50: −log10 of the molar value. Where a name gives a salt, the structure may show the parent alone.
I would appreciate it if you labelled entries Fulfilled when pIC50 is 9 or higher, otherwise Not fulfilled.

| compound | assayed target | group label |
| --- | --- | --- |
| CN(CCCC(=O)c1ccc(F)cc1)CCN(C)c1ncccn1 | σ receptors (Cavia porcellus) | Not fulfilled |
| CN(CCCC(=O)c1ccc(F)cc1)CCN(C)Cc1ccc(F)cc1 [Example 7, dihydrochloride] | σ receptors (Cavia porcellus) | Fulfilled |
| CN(CCCC(=O)c1ccc(F)cc1)CCN(C)Cc1ccccc1 [Example 5, dihydrochloride] | σ receptors (Cavia porcellus) | Not fulfilled |
| CN(CCCC(O)c1ccc(F)cc1)CCN(C)Cc1ccc(F)cc1 (stereo not drawn) [Example 8, dihydrochloride] | σ receptors (Cavia porcellus) | Not fulfilled |
| CN(CCCC(O)c1ccc(F)cc1)CCN(C)Cc1ccccc1 (stereo not drawn) [Example 6, dihydrochloride] | σ receptors (Cavia porcellus) | Not fulfilled |

--- query ---
Can CN(CCCC(c1ccc(F)cc1)c1ccc(F)cc1)CCN(C)Cc1ccc(F)cc1 [Example 9, dihydrochloride] be said to have pIC50 at or above 9?
Not fulfilled

====

Target: D2 receptors (Rattus norvegicus)
Sequence (P61169 whole entry): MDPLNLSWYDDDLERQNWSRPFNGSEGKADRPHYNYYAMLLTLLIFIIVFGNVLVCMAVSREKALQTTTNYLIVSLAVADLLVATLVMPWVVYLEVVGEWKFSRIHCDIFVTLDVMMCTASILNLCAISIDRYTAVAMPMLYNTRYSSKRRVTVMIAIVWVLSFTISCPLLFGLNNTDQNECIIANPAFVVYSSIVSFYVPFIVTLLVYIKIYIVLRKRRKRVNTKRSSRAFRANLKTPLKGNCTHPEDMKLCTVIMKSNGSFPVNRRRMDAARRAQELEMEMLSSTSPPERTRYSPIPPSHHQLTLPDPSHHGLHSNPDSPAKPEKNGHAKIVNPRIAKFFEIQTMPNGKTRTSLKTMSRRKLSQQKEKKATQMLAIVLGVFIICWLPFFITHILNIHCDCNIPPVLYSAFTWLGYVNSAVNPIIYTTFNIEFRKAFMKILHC
Experiment: Specific binding to D2 receptors, [^3 H]spiperone displacement
Structures can show the parent of a compound that is named as a salt.
readout: log10 IC50 (log10 of the value in nM)
The base-10 logarithm of IC50, taken with IC50 in nM, is what appears here.

I have 6 molecules here; please give me log10 IC50 for each one.
1. CN(CCCC(O)c1ccc(F)cc1)CCN(C)Cc1ccccc1 (stereo not drawn) [Example 6, dihydrochloride]
2. CN(CCCC(O)c1ccc(F)cc1)CCN(C)Cc1ccc(F)cc1 (stereo not drawn) [Example 8, dihydrochloride]
3. CN(CCCC(=O)c1ccc(F)cc1)CCN(C)Cc1ccc(F)cc1 [Example 7, dihydrochloride]
4. CN(CCCC(c1ccc(F)cc1)c1ccc(F)cc1)CCN(C)Cc1ccc(F)cc1 [Example 9, dihydrochloride]
5. CN(CCCC(=O)c1ccc(F)cc1)CCN(C)Cc1ccccc1 [Example 5, dihydrochloride]
6. CN(CCCC(=O)c1ccc(F)cc1)CCN(C)c1ncccn1

4.91
3.89
2.83
3.37
2.61
3.18
